- STUDY SYSTEM: Radiolabeled RNA oligonucleotide
- EXPERIMENT SUMMARY: Ultrafiltration binding experiment, RNA oligonucleotide
- CONDITION SUMMARY: fraction in complexes >300 kDa by ultrafiltration (300 kDa MWCO); buffer H, 25 °C, 15 min; read-out: apparent KD, RNA oligonucleotide
pKd: −log10 of the molar value.
ASSAY ENDPOINT: pKd

COMPOUND	MEASURED VALUE
CCCCCCCCCCCCSC[C@H]1O[C@H](O[C@@H]2[C@@H](O)[C@H](O[C@H]3O[C@H](CN)[C@@H](O)[C@H](O)[C@H]3N)[C@@H](N)C[C@H]2N)[C@H](O)[C@@H](N)[C@@H]1O [KANB-C12]	~6.00

----------
- STUDY SYSTEM: HIV-1 RT WT (Human immunodeficiency virus type 1 group M subtype B)

COMPOUND	STUDY SYSTEM	VALUE UNIT	IC50
CCCCCCCCCCCCSC[C@H]1O[C@H](O[C@@H]2[C@@H](O)[C@H](O[C@H]3O[C@H](CN)[C@@H](O)[C@H](O)[C@H]3N)[C@@H](N)C[C@H]2N)[C@H](O)[C@@H](N)[C@@H]1O [KANB-C12]	HIV-1 RT WT (Human immunodeficiency virus type 1 group M subtype B)	nM	1900
CCCCCCCCSC[C@H]1O[C@H](O[C@@H]2[C@@H](O)[C@H](O[C@H]3O[C@H](CN)[C@@H](O)[C@H](O)[C@H]3N)[C@@H](N)C[C@H]2N)[C@H](O)[C@@H](N)[C@@H]1O [KANB-C8]	HIV-1 RT WT (Human immunodeficiency virus type 1 group M subtype B)	nM	8000
CCCCCCCCCCCCCCSC[C@H]1O[C@H](O[C@@H]2[C@@H](O)[C@H](O[C@H]3O[C@H](CN)[C@@H](O)C[C@H]3N)[C@@H](N)C[C@H]2N)[C@H](O)[C@@H](N)[C@@H]1O [TOB-C14]	HIV-1 RT WT (Human immunodeficiency virus type 1 group M subtype B)	nM	1900
CCCCCCCCCCSC[C@H]1O[C@H](O[C@@H]2[C@@H](O)[C@H](O[C@H]3O[C@H](CN)[C@@H](O)[C@H](O)[C@H]3N)[C@@H](N)C[C@H]2N)[C@H](O)[C@@H](N)[C@@H]1O [KANB-C10]	HIV-1 RT WT (Human immunodeficiency virus type 1 group M subtype B)	nM	3800
CCCCCCCCCCCCSC[C@H]1O[C@H](O[C@@H]2[C@@H](O)[C@H](O[C@H]3O[C@H](CN)[C@@H](O)C[C@H]3N)[C@@H](N)C[C@H]2N)[C@H](O)[C@@H](N)[C@@H]1O [TOB-C12]	HIV-1 RT WT (Human immunodeficiency virus type 1 group M subtype B)	nM	300
NC[C@H]1O[C@H](O[C@H]2[C@H](O)[C@@H](O[C@H]3O[C@H](CSc4ccc5ccccc5c4)[C@@H](O)[C@H](N)[C@H]3O)[C@H](N)C[C@@H]2N)[C@H](N)C[C@@H]1O [TOB-Nap]	HIV-1 RT WT (Human immunodeficiency virus type 1 group M subtype B)	nM	40000

----------
- STUDY SYSTEM: Radiolabeled RNA oligonucleotide
- EXPERIMENT SUMMARY: Ultrafiltration binding experiment, RNA oligonucleotide
- CONDITION SUMMARY: fraction in complexes >300 kDa by ultrafiltration (300 kDa MWCO); buffer H, 25 °C, 15 min; listed as KAN-C12; read-out: apparent KD, RNA oligonucleotide
pKd: −log10 of the molar value.
ASSAY ENDPOINT: pKd

COMPOUND	ASSAY ENDPOINT	MEASURED VALUE
CCCCCCCCCCCCSC[C@H]1O[C@H](O[C@@H]2[C@@H](O)[C@H](O[C@H]3O[C@H](CN)[C@@H](O)[C@H](O)[C@H]3N)[C@@H](N)C[C@H]2N)[C@H](O)[C@@H](N)[C@@H]1O [KANB-C12]	pKd	5.96

----------
# pIC50 per entry
- STUDY SYSTEM: HIV-1 RT Y181C (Human immunodeficiency virus type 1 group M subtype B, UniProt P04585, Y768C)
- Construct: overexpress HIV-1 RT subunits p66 and His6-tagged p51; made in house; host or cells: E. coli BL21/DE3 (p66) and DH5α (His6-p51)
- EXPERIMENT SUMMARY: Multi-nucleotide primer extension assay, Y181C HIV-1 RT
- Assay type: biochemical
pIC50: −log10 of the molar value.
ASSAY ENDPOINT: pIC50

CPD SMILES	ASSAY ENDPOINT	MEASURED VALUE
CCCCCCCCSC[C@H]1O[C@H](O[C@@H]2[C@@H](O)[C@H](O[C@H]3O[C@H](CN)[C@@H](O)[C@H](O)[C@H]3N)[C@@H](N)C[C@H]2N)[C@H](O)[C@@H](N)[C@@H]1O	pIC50	5.10
CCCCCCCCCCCCSC[C@H]1O[C@H](O[C@@H]2[C@@H](O)[C@H](O[C@H]3O[C@H](CN)[C@@H](O)[C@H](O)[C@H]3N)[C@@H](N)C[C@H]2N)[C@H](O)[C@@H](N)[C@@H]1O	pIC50	6.30
CCCCCCCCCCCCCCSC[C@H]1O[C@H](O[C@@H]2[C@@H](O)[C@H](O[C@H]3O[C@H](CN)[C@@H](O)C[C@H]3N)[C@@H](N)C[C@H]2N)[C@H](O)[C@@H](N)[C@@H]1O	pIC50	5.85
CCCCCCCCCCCCSC[C@H]1O[C@H](O[C@@H]2[C@@H](O)[C@H](O[C@H]3O[C@H](CN)[C@@H](O)C[C@H]3N)[C@@H](N)C[C@H]2N)[C@H](O)[C@@H](N)[C@@H]1O	pIC50	6.30
CCCCCCCCCCSC[C@H]1O[C@H](O[C@@H]2[C@@H](O)[C@H](O[C@H]3O[C@H](CN)[C@@H](O)[C@H](O)[C@H]3N)[C@@H](N)C[C@H]2N)[C@H](O)[C@@H](N)[C@@H]1O	pIC50	6.00
NC[C@H]1O[C@H](O[C@H]2[C@H](O)[C@@H](O[C@H]3O[C@H](CSc4ccc5ccccc5c4)[C@@H](O)[C@H](N)[C@H]3O)[C@H](N)C[C@@H]2N)[C@H](N)C[C@@H]1O	pIC50	4.92

----------
- Tested on: AMV RT
- EXPERIMENT SUMMARY: Single-nucleotide incorporation kinetics (quench-flow), AMV RT
- Format: biochemical, avian myeloblastosis virus
- CONDITION SUMMARY: dATP at 10 µM, read-out: IC50, amplitude of single-nucleotide incorporation

CPD SMILES	IC50 / µM
CCCCCCCCCCCCSC[C@H]1O[C@H](O[C@@H]2[C@@H](O)[C@H](O[C@H]3O[C@H](CN)[C@@H](O)C[C@H]3N)[C@@H](N)C[C@H]2N)[C@H](O)[C@@H](N)[C@@H]1O	13

----------
- STUDY SYSTEM: HIV-1 RT K103N (Human immunodeficiency virus type 1 group M subtype B, UniProt P04585, K690N)
- Construct: overexpress HIV-1 RT subunits p66 and His6-tagged p51; made in house; host or cells: E. coli BL21/DE3 (p66) and DH5α (His6-p51)
- EXPERIMENT SUMMARY: Multi-nucleotide primer extension assay, K103N HIV-1 RT
- Format: biochemical
- CONDITION SUMMARY: mean ± SEM from 3 or more independent experiments
ASSAY ENDPOINT: log10 of IC50 (log10 of the value in µM)

CPD SMILES	log10 of IC50
NC[C@H]1O[C@H](O[C@H]2[C@H](O)[C@@H](O[C@H]3O[C@H](CSc4ccc5ccccc5c4)[C@@H](O)[C@H](N)[C@H]3O)[C@H](N)C[C@@H]2N)[C@H](N)C[C@@H]1O	1.60
CCCCCCCCSC[C@H]1O[C@H](O[C@@H]2[C@@H](O)[C@H](O[C@H]3O[C@H](CN)[C@@H](O)[C@H](O)[C@H]3N)[C@@H](N)C[C@H]2N)[C@H](O)[C@@H](N)[C@@H]1O	0.85
CCCCCCCCCCCCSC[C@H]1O[C@H](O[C@@H]2[C@@H](O)[C@H](O[C@H]3O[C@H](CN)[C@@H](O)C[C@H]3N)[C@@H](N)C[C@H]2N)[C@H](O)[C@@H](N)[C@@H]1O	-0.22
CCCCCCCCCCSC[C@H]1O[C@H](O[C@@H]2[C@@H](O)[C@H](O[C@H]3O[C@H](CN)[C@@H](O)[C@H](O)[C@H]3N)[C@@H](N)C[C@H]2N)[C@H](O)[C@@H](N)[C@@H]1O	0.28
CCCCCCCCCCCCSC[C@H]1O[C@H](O[C@@H]2[C@@H](O)[C@H](O[C@H]3O[C@H](CN)[C@@H](O)[C@H](O)[C@H]3N)[C@@H](N)C[C@H]2N)[C@H](O)[C@@H](N)[C@@H]1O	0.30
CCCCCCCCCCCCCCSC[C@H]1O[C@H](O[C@@H]2[C@@H](O)[C@H](O[C@H]3O[C@H](CN)[C@@H](O)C[C@H]3N)[C@@H](N)C[C@H]2N)[C@H](O)[C@@H](N)[C@@H]1O	0.08
